hERG current change (%, negative = inhibition) at 10uM: recorded values
measurementTarget: human ether-à-go-go-related gene (hERG) potassium channel (human);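 further: peak tail current of the secondary pulse compared with the same well before compound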
Sequence (Q12809 whole entry, looked up): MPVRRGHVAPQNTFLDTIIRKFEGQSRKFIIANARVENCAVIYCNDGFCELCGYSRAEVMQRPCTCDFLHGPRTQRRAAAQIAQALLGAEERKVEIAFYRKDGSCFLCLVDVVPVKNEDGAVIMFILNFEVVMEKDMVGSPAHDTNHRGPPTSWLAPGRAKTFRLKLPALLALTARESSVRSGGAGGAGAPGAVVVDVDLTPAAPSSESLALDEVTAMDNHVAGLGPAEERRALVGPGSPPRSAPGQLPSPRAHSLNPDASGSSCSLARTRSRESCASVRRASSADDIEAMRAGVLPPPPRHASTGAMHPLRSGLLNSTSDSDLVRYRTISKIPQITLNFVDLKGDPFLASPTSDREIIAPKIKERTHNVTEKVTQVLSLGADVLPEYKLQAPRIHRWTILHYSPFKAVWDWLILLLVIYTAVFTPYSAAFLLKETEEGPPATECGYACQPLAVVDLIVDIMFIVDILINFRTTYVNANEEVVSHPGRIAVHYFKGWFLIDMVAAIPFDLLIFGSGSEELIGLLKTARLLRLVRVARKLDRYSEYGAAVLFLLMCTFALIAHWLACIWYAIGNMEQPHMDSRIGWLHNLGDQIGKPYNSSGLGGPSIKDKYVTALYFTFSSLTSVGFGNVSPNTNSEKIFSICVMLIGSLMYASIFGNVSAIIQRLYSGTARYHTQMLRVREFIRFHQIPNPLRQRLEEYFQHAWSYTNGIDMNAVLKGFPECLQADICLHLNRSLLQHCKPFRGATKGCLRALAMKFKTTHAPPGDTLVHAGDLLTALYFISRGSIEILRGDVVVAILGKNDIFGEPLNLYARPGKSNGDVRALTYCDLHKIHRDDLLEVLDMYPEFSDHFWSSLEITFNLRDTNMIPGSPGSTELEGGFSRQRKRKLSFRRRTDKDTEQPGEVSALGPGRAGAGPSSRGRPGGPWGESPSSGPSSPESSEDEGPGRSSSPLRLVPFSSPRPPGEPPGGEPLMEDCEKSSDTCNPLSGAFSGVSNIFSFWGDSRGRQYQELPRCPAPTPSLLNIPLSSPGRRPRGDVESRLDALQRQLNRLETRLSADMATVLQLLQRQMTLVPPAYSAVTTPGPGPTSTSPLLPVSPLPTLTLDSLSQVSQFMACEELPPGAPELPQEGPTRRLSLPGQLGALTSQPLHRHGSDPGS
protocolDescription: primary screen, population patch clamp on CHO cells stably expressing hERG; higher = less effect of the substance
The whole screen tested about 310,000 compounds, of which about 14,000 (4.5%) showed an effect of 50% or more. Effects have a minus sign here. What follows is part of a selection rich in strong results, with near analogues and random picks from the rest.
readoutName: hERG current change (%, negative = inhibition) at 10uM

[
  {
    "compound": "CCn1c2ccccc2c2cc(NC(=O)C(=O)NCC3CCCO3)ccc21 (stereo not shown)",
    "result": "-6.57%"
  },
  {
    "compound": "Cc1ccc(C)c(N2CCN(C(=O)CN(C)S(=O)(=O)c3ccc4c(c3)CCC(=O)N4)CC2)c1",
    "result": "-41.5%"
  },
  {
    "compound": "N=c1c2c3c(sc2ncn1Cc1ccco1)CCCCC3",
    "result": "-62%"
  },
  {
    "compound": "Cn1cnc(S(=O)(=O)N2CCN(c3cccc(C(F)(F)F)c3)CC2)c1",
    "result": "7.43%"
  },
  {
    "compound": "COc1ccc2c(Cl)c(-c3nnc4n3CCCCC4)sc2c1",
    "result": "-51.2%"
  },
  {
    "compound": "COc1ccc(C(=O)NC(C)c2ccc(-n3ccnc3)cc2)c(OC)c1 (stereo not shown)",
    "result": "-53.8%"
  },
  {
    "compound": "OCC1(Cc2ccccc2C(F)(F)F)CCN(Cc2ccncc2)CC1",
    "result": "-13.8%"
  },
  {
    "compound": "CC(NC(=O)c1ccccc1OC(F)F)c1ccc(-n2ccnc2)cc1 (stereo not shown)",
    "result": "-55%"
  },
  {
    "compound": "N=c1c2c3c(sc2ncn1Cc1ccccc1)CCCC3",
    "result": "-49.7%"
  },
  {
    "compound": "CC(=O)c1ccc(N2CCN(C(=O)Cn3cnc(S(=O)(=O)N4CCCCC4)c3)CC2)cc1",
    "result": "7.48%"
  },
  {
    "compound": "CN(C(=O)COC(=O)/C=C/c1cn(-c2ccccc2)nc1-c1ccc2c(c1)OCCO2)C1CCS(=O)(=O)C1 (stereo not shown)",
    "result": "-3.86%"
  },
  {
    "compound": "CCC(=O)N(CCc1ccccc1C)Cc1cc2cc3c(cc2[nH]c1=O)OCO3",
    "result": "-3.05%"
  },
  {
    "compound": "COc1ccc(OC)c(S(=O)(=O)NC(C)c2ccc(-n3ccnc3)cc2)c1 (stereo not shown)",
    "result": "-25.1%"
  },
  {
    "compound": "OCC1(Cc2ccccc2C(F)(F)F)CCN(Cc2cccc3cnccc23)CC1",
    "result": "-11%"
  },
  {
    "compound": "Cl.c1ccc(CN2C3=NCCCN3c3ccccc32)cc1",
    "result": "-57.5%"
  },
  {
    "compound": "CC1CCN(S(=O)(=O)c2cn(CC(=O)N3CCN(c4cccc(C(F)(F)F)c4)CC3)cn2)CC1",
    "result": "-54%"
  },
  {
    "compound": "CC1(C(=O)N2CCC(CO)(Cc3cccc(C(F)(F)F)c3)CC2)CC1",
    "result": "4.02%"
  },
  {
    "compound": "O=C(CS(=O)(=O)c1ccc(F)cc1)N1CCN(c2ccccc2)CC1",
    "result": "-42.4%"
  },
  {
    "compound": "Cc1cccc(N2CCN(C(=O)c3cc4c(=O)n(C)c5ccccc5c4n3C)CC2C)c1 (stereo not shown)",
    "result": "-16%"
  },
  {
    "compound": "CCCCn1cnc2sc3c(c2c1=N)CCCC3",
    "result": "-52.1%"
  },
  {
    "compound": "Cc1ccc(Cc2nnc(SCC(=O)Nc3c(C)cccc3C)[nH]c2=O)cc1",
    "result": "-9.17%"
  },
  {
    "compound": "Cc1cccc(N2CCN(C(=O)CCNS(=O)(=O)c3ccc4c(c3)CCC(=O)N4)CC2)c1C",
    "result": "-44.6%"
  },
  {
    "compound": "CN(C)S(=O)(=O)N1CCC(CO)(Cc2cccc(C(F)(F)F)c2)CC1",
    "result": "-4.25%"
  },
  {
    "compound": "CC(NC(=O)CCNC(=O)c1ccccc1Cl)c1ccc(-n2ccnc2)cc1 (stereo not shown)",
    "result": "-17.8%"
  },
  {
    "compound": "c1ccc(CN2C3=NCCN3c3ccccc32)cc1",
    "result": "-39.5%"
  },
  {
    "compound": "N=c1c2c3c(sc2ncn1CCCN1CCOCC1)CCCCC3",
    "result": "-51.2%"
  },
  {
    "compound": "C/C(=N\\NC(=O)c1nc2ccccn2c1C)c1cccc([N+](=O)[O-])c1",
    "result": "-23.4%"
  },
  {
    "compound": "CC(NC(=O)c1c(F)cccc1Cl)c1ccc(-n2ccnc2)cc1 (stereo not shown)",
    "result": "-27%"
  },
  {
    "compound": "COc1ccc(NC(C)=O)cc1S(=O)(=O)NC(C)c1ccc(-n2ccnc2)cc1 (stereo not shown)",
    "result": "-3.74%"
  },
  {
    "compound": "Cc1cc(C)nc(SC(C)CNS(=O)(=O)c2ccccc2)n1 (stereo not shown)",
    "result": "0.485%"
  },
  {
    "compound": "O=C(CCS(=O)(=O)c1ccccc1)N1CCN(c2cccc(C(F)(F)F)c2)CC1",
    "result": "-43.1%"
  },
  {
    "compound": "Cc1ccc(S(=O)(=O)CC(=O)N2CCN(c3cccc(C(F)(F)F)c3)CC2)cc1",
    "result": "-50.4%"
  },
  {
    "compound": "COc1cccc(C(c2nnnn2Cc2ccccc2)N2CCN(C3CCCC3)CC2)c1OC.Cl (stereo not shown)",
    "result": "-32%"
  },
  {
    "compound": "O=C(NCCc1ccccc1)C1CCC(Cn2c(=O)c3ccccc3n(Cc3cccnc3)c2=O)CC1 (stereo not shown)",
    "result": "-37.3%"
  },
  {
    "compound": "Clc1c(-c2nnc3n2CCC3)sc2ccccc12",
    "result": "10.4%"
  },
  {
    "compound": "Brc1ccc(CN2C3=NCCCN3c3ccccc32)cc1.Cl",
    "result": "-74.2%"
  },
  {
    "compound": "COc1ccc(N/C=C/C(=O)c2ccc(Cl)cc2)cc1",
    "result": "-13.7%"
  },
  {
    "compound": "Clc1c(-c2nnc3n2CCCCC3)sc2ccccc12",
    "result": "-13.9%"
  },
  {
    "compound": "Clc1cccc(CN2CCCCCC2)c1",
    "result": "12.3%"
  },
  {
    "compound": "Cc1cc(=O)cc(C)n1-c1ccc(Br)cc1",
    "result": "12.1%"
  }
]

* * *

measurementTarget: human ether-à-go-go-related gene (hERG) potassium channel (human);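 further: peak tail current of the secondary pulse compared with the same well before compound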
protocolDescription: primary screen, population patch clamp on CHO cells stably expressing hERG; higher = less effect of the substance
The campaign covered roughly 310,000 compounds. About 14,000 (4.5%) showed an effect of 50% or more. The effect is printed as a negative number. This is one part of a sample in which strong results are shown more often than they occur.
readoutName: hERG current change (%, negative = inhibition) at 10uM (%)

[
  {
    "molecule": "CN(C)CCCN(C(=O)c1ccc(S(=O)(=O)N2CCCCCC2)cc1)c1nc2cc3c(cc2s1)OCCO3.Cl",
    "recordedNumber": -59.7
  },
  {
    "molecule": "Clc1ccc2c(c1)C(c1ccccc1Cl)=NCc1nnc(N3CCN(CCSc4ccccc4)CC3)n1-2.O.O=C(O)/C=C/C(=O)O",
    "recordedNumber": -66.5
  },
  {
    "molecule": "NS(=O)(=O)c1ccc(NC(=O)COC(=O)CCC2CCCCC2)cc1",
    "recordedNumber": -5.65
  },
  {
    "molecule": "Clc1ccc2c(c1)C(c1ccccc1Cl)=NCc1nnc(Br)n1-2.c1ccccc1",
    "recordedNumber": -6.61
  },
  {
    "molecule": "Cc1nc2cc(NS(=O)(=O)c3cccc(F)c3)ccc2s1",
    "recordedNumber": 7.97
  },
  {
    "molecule": "Cc1ccc2sc(N(CCCN(C)C)C(=O)c3ccc(S(=O)(=O)N4CCOCC4)cc3)nc2c1C.Cl",
    "recordedNumber": -35.9
  },
  {
    "molecule": "Cc1ccc(C(C(=O)NC2CCCC2)N(Cc2ccc3c(c2)OCO3)C(=O)c2snc(C(N)=O)c2N)cc1 (stereo not shown)",
    "recordedNumber": 10.7
  },
  {
    "molecule": "O=[N+]([O-])c1ccc2c(c1)C(N1CCOCC1)/C(=C/COc1ccc(F)cc1)O2 (stereo not shown)",
    "recordedNumber": -26
  },
  {
    "molecule": "CC(CC(=O)Nc1cccc(Cl)c1)c1ccccc1 (stereo not shown)",
    "recordedNumber": -6.32
  },
  {
    "molecule": "COc1ccccc1C(CC(N)=O)c1ccco1 (stereo not shown)",
    "recordedNumber": 10.1
  },
  {
    "molecule": "CCN(CC)CCN(C(=O)c1ccc(S(=O)(=O)N2CCCCC2)cc1)c1nc2cc3c(cc2s1)OCO3.Cl",
    "recordedNumber": -37.6
  },
  {
    "molecule": "Cc1cc(Nc2ccc(O)cc2)ccc1N",
    "recordedNumber": 14.1
  },
  {
    "molecule": "O=C(NC(=S)Nc1ccc(Br)cn1)c1cncc(Br)c1",
    "recordedNumber": 11.3
  },
  {
    "molecule": "CN(C)CCCN(C(=O)c1ccc(S(=O)(=O)N2CCOCC2)cc1)c1nc2cc3c(cc2s1)OCO3.Cl",
    "recordedNumber": -61.4
  },
  {
    "molecule": "O=[N+]([O-])c1ccc2c(c1)C(N1CCOCC1)/C(=C/COc1ccc(Cl)cc1Cl)O2 (stereo not shown)",
    "recordedNumber": -1.06
  },
  {
    "molecule": "CCN(CC)CCN(C(=O)c1ccc(N2C(=O)CCC2=O)cc1)c1nc2cc3c(cc2s1)OCCO3.Cl",
    "recordedNumber": -27.6
  },
  {
    "molecule": "C=CCc1cccc(CNc2nc3ccccc3n2CCC)c1O",
    "recordedNumber": 5.13
  },
  {
    "molecule": "Cc1cc2cc(CNC(=S)NC3CCCCC3)ccc2n1C",
    "recordedNumber": 13.8
  },
  {
    "molecule": "CCN(CC)CCN(C(=O)c1ccc(S(=O)(=O)N2CCOCC2)cc1)c1nc2cc3c(cc2s1)OCCO3.Cl",
    "recordedNumber": -69.2
  }
]
